target: human C5 (human, UniProt P01031 19-1676); assay: cell-based or functional assay
Answer each item with its documented Human AP % Max Inhibition, hemolysis assay, NHS.
Write the number in % without appending the unit.

I would be grateful if you could share the reported Human AP % Max Inhibition, hemolysis assay, NHS for H4H12168P (antibody, human IgG4, V domains shown, H4H: human IgG4 Fc with S108P hinge mutation) VH: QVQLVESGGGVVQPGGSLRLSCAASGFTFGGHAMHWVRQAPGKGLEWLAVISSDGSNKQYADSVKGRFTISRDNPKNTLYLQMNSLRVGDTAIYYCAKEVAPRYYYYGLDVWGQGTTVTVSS VL: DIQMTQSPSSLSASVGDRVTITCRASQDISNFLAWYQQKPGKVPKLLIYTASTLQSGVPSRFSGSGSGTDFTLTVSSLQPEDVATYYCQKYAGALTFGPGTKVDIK .
66.2

Given the entry H4H12171P (antibody, human IgG4, V domains shown, H4H: human IgG4 Fc with S108P hinge mutation) VH: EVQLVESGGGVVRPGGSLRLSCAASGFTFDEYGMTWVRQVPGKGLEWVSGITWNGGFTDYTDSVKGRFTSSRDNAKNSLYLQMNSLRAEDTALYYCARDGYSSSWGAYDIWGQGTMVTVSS VL: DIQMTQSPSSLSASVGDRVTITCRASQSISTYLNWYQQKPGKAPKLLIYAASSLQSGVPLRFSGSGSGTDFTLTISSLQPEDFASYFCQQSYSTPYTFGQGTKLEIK , report its measured Human AP % Max Inhibition, hemolysis assay, NHS.
42

Endpoint output: Human AP % Max Inhibition, hemolysis assay, NHS of H4H12159P (antibody, human IgG4, V domains shown, H4H: human IgG4 Fc with S108P hinge mutation) VH: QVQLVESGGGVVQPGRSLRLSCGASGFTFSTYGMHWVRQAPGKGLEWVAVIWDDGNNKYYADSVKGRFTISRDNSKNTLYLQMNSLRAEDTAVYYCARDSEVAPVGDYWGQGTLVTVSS VL: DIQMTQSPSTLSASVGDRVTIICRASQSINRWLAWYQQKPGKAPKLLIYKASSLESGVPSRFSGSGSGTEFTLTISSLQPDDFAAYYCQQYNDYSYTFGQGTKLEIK . Value?
73.4

Return reported Human AP % Max Inhibition, hemolysis assay, NHS; argument: H4H11686N (antibody, human IgG4, V domains shown, tested with H4H prefix (human IgG4 Fc with S108P hinge mutation); also called H2M11686N) VH: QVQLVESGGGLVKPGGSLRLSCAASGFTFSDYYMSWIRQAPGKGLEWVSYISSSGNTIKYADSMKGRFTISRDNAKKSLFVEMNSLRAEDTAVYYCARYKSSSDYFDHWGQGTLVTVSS VL: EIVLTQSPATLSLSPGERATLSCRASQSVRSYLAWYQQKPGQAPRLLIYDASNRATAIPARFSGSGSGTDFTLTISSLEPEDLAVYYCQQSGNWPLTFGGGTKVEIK
76.2

Look up Human AP % Max Inhibition, hemolysis assay, NHS: H4H12164P (antibody, human IgG4, V domains shown, H4H: human IgG4 Fc with S108P hinge mutation) VH: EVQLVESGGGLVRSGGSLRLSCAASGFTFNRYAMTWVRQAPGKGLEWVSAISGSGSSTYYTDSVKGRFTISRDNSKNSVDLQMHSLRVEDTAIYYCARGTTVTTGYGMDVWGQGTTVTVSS VL: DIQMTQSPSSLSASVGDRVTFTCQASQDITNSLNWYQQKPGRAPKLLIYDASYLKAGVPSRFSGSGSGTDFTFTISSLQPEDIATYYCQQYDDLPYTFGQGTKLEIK
69.7
